system: Rattus norvegicus; test: Tested for hypolipidemic activity in male rats, cholesterol was determined in serum at 10 mg/kg; assay type: functional
Activity vs -30%: less than gives t; not less than gives f.

compound: COC1/C=C/OC2(C)Oc3c(C)c(O)c4c(O)c(c(N5CCN(Cc6c(C)cc(C)cc6C)CC5)c(O)c4c3C2=O)NC(=O)/C(C)=C\C=C\C(C)C(O)C(C)C(O)C(C)C(OC(C)=O)C1C (centres undefined)
group: t
//
compound: CC(=O)OC1C(C)C2/C=C/OC3(C)Oc4c(C)c(O)c5c(O)c(c(N6CCN(Cc7c(C)cc(C)cc7C)CC6)c(O)c5c4C3=O)NC(=O)/C(C)=C\C=C\C(C)C(O)C(C)C(O2)C1C (centres undefined)
group: f

// query Find out if reported Activity for COC1/C=C/OC2(C)Oc3c(C)c(O)c4c(O)c(c(N5CCN(Cc6c(C)cc(C)cc6C)CC5)c(O)c4c3C2=O)NC(=O)/C(C)=C\C=C\C(C)C(O)C(C)C(=O)C(C)C(OC(C)=O)C1C (centres undefined) is less than -30%
// result f

// query Find out if reported Activity for COC1/C=C/OC2(C)Oc3c(C)c(O)c4c(O)c(c(N5CCN(Cc6c(C)cc(C)cc6C)CC5)c(O)c4c3C2=O)NC(=O)/C(C)=C\C=C\C(C)C2OC(C)(C)OC(C2C)C(C)C(OC(C)=O)C1C (centres undefined) is less than -30%
// result f

// query Find out if reported Activity for COC1/C=C/OC2(C)Oc3c(C)c(O)c4c(O)c(c(N5CCN(Cc6c(C)cc(C)cc6C)CC5)c(O)c4c3C2=O)NC(=O)/C(C)=C\C=C\C(C)C(=O)C(C)C(O)C(C)C(OC(C)=O)C1C (centres undefined) is less than -30%
// result f

// query Find out if reported Activity for COC1/C=C/OC2(C)Oc3c(C)c(O)c4c(O)c(c(N5CCN(Cc6c(C)cc(C)cc6C)CC5)c(O)c4c3C2=O)NC(=O)/C(C)=C\C=C\C(C)C(OC(C)=O)C(C)C(OC(C)=O)C(C)C(OC(C)=O)C1C (centres undefined) is less than -30%
// result f

// query Find out if reported Activity for COC1/C=C/OC2(C)Oc3c(C)c(O)c4c(O)c(c(N5CCN(Cc6c(C)cc(C)cc6C)CC5)c(O)c4c3C2=O)NC(=O)C(C)CCCC(C)C(O)C(C)C(O)C(C)C(OC(C)=O)C1C (centres undefined) is less than -30%
// result t
